From: patent US20030191279A1

measurement-label: melting point (°C)
# number only, unit °C dropped from output

>>> reported_result("O=C(O)c1cc(C(=O)NCC(=O)N(Cc2ccccc2)[C@@H]2CCCC[C@H]2Cc2ccccc2)ncn1 (relative stereo) [Example 20]")
120

Now for the compound whose melting point we want.
Q. Data request, read-out melting point, for COc1ccccc1C[C@@H]1CCc2ccccc2[C@H]1N(Cc1ccccc1)C(=O)CNC(=O)Nc1cccc(C(=O)O)c1 (relative stereo) [Example 18]
A. 130

====

measurement-label: melting point

// solved cases for melting point follow
>>> reported_result("O=C(NCC(=O)N(Cc1ccccc1)[C@@H]1c2ccccc2CC[C@H]1Cc1ccccc1)Nc1cccc(C(=O)O)c1 (relative stereo) [Example 1]")
"> 250 °C"
>>> reported_result("CCN(C(=O)CNC(=O)Nc1cccc(C(=O)O)c1)[C@@H]1c2ccccc2CC[C@H]1Cc1ccccc1 (relative stereo) [Example 16]")
"130 °C"

Q. Data request, read-out melting point, for O=C(NCC(=O)N(Cc1ccccc1)[C@@H]1c2ccccc2CC[C@H]1Cc1ccccc1)c1cccc(-c2nnn[nH]2)c1 (relative stereo) [Example 4]
A. 119 °C (dec.)

Q. Data request, read-out melting point, for COc1ccccc1CN(C(=O)CNC(=O)Nc1cccc(C(=O)O)c1)[C@@H]1c2ccccc2CC[C@H]1Cc1ccccc1 (relative stereo) [Example 11]
A. 117 °C

Q. Data request, read-out melting point, for O=C(NCC(=O)N(Cc1ccccc1)[C@@H]1c2ccccc2CC[C@H]1Cc1ccccc1)Nc1cccc(C(=O)Nc2nnn[nH]2)c1 (relative stereo) [Example 3]
A. 155 °C (dec.)

Q. Data request, read-out melting point, for O=C(NCC(=O)N(Cc1nccs1)[C@@H]1c2ccccc2CC[C@H]1Cc1ccccc1)Nc1cccc(C(=O)O)c1 (relative stereo) [Example 17]
A. 194 to 195 °C

Q. Data request, read-out melting point, for O=C(NCC(=O)N(Cc1cccs1)[C@@H]1c2ccccc2CC[C@H]1Cc1ccccc1)Nc1cccc(C(=O)O)c1 (relative stereo) [Example 13]
A. 196 to 198 °C
